Entry source: paper PMC9948168

Give inhibition at 10 µM for every item shown.
Test system: NCI-H23
Assay: NCI-60 one-dose screening
Type: cell-based
Settings: Homo sapiens, NCI-H23, Non-Small Cell Lung Cancer, read-out: GI (%)
Lab book: enter the figure in %, no units written.

-- ask Tell me the measured inhibition at 10 µM of COc1ccc(COc2ccc(/C=C3/C(=O)Nc4ccccc43)cc2OC)cc1 , please.
-- reply -2.85

-- ask Tell me the measured inhibition at 10 µM of COc1ccc(COc2ccc(/C=C3/C(=O)Nc4cc(Cl)ccc43)cc2OC)cc1 , please.
-- reply 2.17

-- ask Tell me the measured inhibition at 10 µM of COc1cc(C=C2C(=O)Nc3ccc(Cl)cc32)ccc1OCc1ccc(Cl)cc1 (mixture of isomers) , please.
-- reply 20.2

-- ask Tell me the measured inhibition at 10 µM of COc1cc(/C=C2/C(=O)Nc3ccccc32)ccc1OCc1ccc(Cl)cc1 , please.
-- reply 6.66

-- ask Tell me the measured inhibition at 10 µM of COc1cc(C=C2C(=O)Nc3ccccc32)ccc1OCc1ccccn1 (mixture of isomers) , please.
-- reply 12.6

-- ask Tell me the measured inhibition at 10 µM of COc1cc(C=C2C(=O)Nc3ccc(Cl)cc32)ccc1O (mixture of isomers) , please.
-- reply 15.6

-- ask Tell me the measured inhibition at 10 µM of COc1cc(/C=C2/C(=O)Nc3cc(Cl)ccc32)ccc1OCc1ccc(F)cc1 , please.
-- reply -0.55

-- ask Tell me the measured inhibition at 10 µM of COc1cc(/C=C2/C(=O)Nc3cc(Cl)ccc32)ccc1O , please.
-- reply 11.6

-- ask Tell me the measured inhibition at 10 µM of COc1cc(C=C2C(=O)Nc3ccc(Cl)cc32)ccc1OCc1ccccn1 (mixture of isomers) , please.
-- reply 9.09

* * *

Tested on: T-47D
Experiment: NCI-60 one-dose screening
Assay type: cell-based
Details: Homo sapiens, T47D, Breast Cancer, read-out: GI (%)
readout.label: inhibition at 10 µM
In your response, put the unit directly after the numeric value.

-- ask Tell me the measured inhibition at 10 µM of COc1cc(C=C2C(=O)Nc3cc(Cl)ccc32)ccc1OCc1ccc(Cl)cc1 (mixture of isomers) [6l] , please.
-- reply 14.8%

-- ask Tell me the measured inhibition at 10 µM of COc1cc(C=C2C(=O)Nc3ccc(Cl)cc32)ccc1OCc1ccc(Cl)cc1 (mixture of isomers) [6g] , please.
-- reply 10%

-- ask Tell me the measured inhibition at 10 µM of COc1cc(C=C2C(=O)Nc3ccc(Cl)cc32)ccc1O (mixture of isomers) [5b] , please.
-- reply 40.9%

-- ask Tell me the measured inhibition at 10 µM of COc1ccc(COc2ccc(/C=C3/C(=O)Nc4cc(Cl)ccc43)cc2OC)cc1 [6n] , please.
-- reply 12.8%

* * *

Give inhibition at 10 µM for every item shown.
Tested on: BT-549
Experiment: NCI-60 one-dose screening
Format: cell-based
Conditions: Homo sapiens, BT-549, Breast Cancer, read-out: GI (%)
Lab book: enter the figure in %, no units written.

-- ask Tell me the measured inhibition at 10 µM of COc1cc(C=C2C(=O)Nc3ccccc32)ccc1O (mixture of isomers) , please.
-- reply 25.6

-- ask Tell me the measured inhibition at 10 µM of COc1ccc(COc2ccc(/C=C3/C(=O)Nc4cc(Cl)ccc43)cc2OC)cc1 , please.
-- reply 0.06

-- ask Tell me the measured inhibition at 10 µM of COc1cc(C=C2C(=O)Nc3ccc(Cl)cc32)ccc1OCc1ccc(Cl)cc1 (mixture of isomers) , please.
-- reply 4.38

-- ask Tell me the measured inhibition at 10 µM of COc1cc(/C=C2/C(=O)Nc3cc(Cl)ccc32)ccc1OCc1ccccc1 , please.
-- reply 16.8

-- ask Tell me the measured inhibition at 10 µM of COc1cc(/C=C2/C(=O)Nc3ccc(Cl)cc32)ccc1OCc1ccccc1 , please.
-- reply -5.93

-- ask Tell me the measured inhibition at 10 µM of COc1cc(C=C2C(=O)Nc3cc(Cl)ccc32)ccc1OCc1ccc(Cl)cc1 (mixture of isomers) , please.
-- reply 6.99

-- ask Tell me the measured inhibition at 10 µM of COc1cc(/C=C2/C(=O)Nc3ccccc32)ccc1OCc1ccc(F)cc1 , please.
-- reply -15.7

-- ask Tell me the measured inhibition at 10 µM of COc1cc(/C=C2/C(=O)Nc3cc(Cl)ccc32)ccc1O , please.
-- reply 23.8

-- ask Tell me the measured inhibition at 10 µM of COc1cc(C=C2C(=O)Nc3ccccc32)ccc1OCc1ccccn1 (mixture of isomers) , please.
-- reply -6.45

-- ask Tell me the measured inhibition at 10 µM of COc1cc(C=C2C(=O)Nc3ccc(Cl)cc32)ccc1OCc1ccc(F)cc1 (mixture of isomers) , please.
-- reply -1.21

-- ask Tell me the measured inhibition at 10 µM of COc1cc(C=C2C(=O)Nc3ccccc32)ccc1OCc1ccccc1 (mixture of isomers) , please.
-- reply 1.2

-- ask Tell me the measured inhibition at 10 µM of COc1cc(C=C2C(=O)Nc3ccc(Cl)cc32)ccc1OCc1ccccn1 (mixture of isomers) , please.
-- reply -8.61

-- ask Tell me the measured inhibition at 10 µM of COc1cc(C=C2C(=O)Nc3ccc(Cl)cc32)ccc1O (mixture of isomers) , please.
-- reply 25

-- ask Tell me the measured inhibition at 10 µM of COc1cc(/C=C2/C(=O)Nc3cc(Cl)ccc32)ccc1OCc1ccc(F)cc1 , please.
-- reply 4.26

-- ask Tell me the measured inhibition at 10 µM of COc1cc(/C=C2/C(=O)Nc3ccccc32)ccc1OCc1ccc(Cl)cc1 , please.
-- reply -9.1

-- ask Tell me the measured inhibition at 10 µM of COc1cc(/C=C2/C(=O)Nc3cc(Cl)ccc32)ccc1OCc1ccccn1 , please.
-- reply 3.31

-- ask Tell me the measured inhibition at 10 µM of COc1ccc(COc2ccc(/C=C3/C(=O)Nc4ccc(Cl)cc43)cc2OC)cc1 , please.
-- reply -13.3

-- ask Tell me the measured inhibition at 10 µM of COc1ccc(COc2ccc(/C=C3/C(=O)Nc4ccccc43)cc2OC)cc1 , please.
-- reply 7.88

* * *

Test system: EKVX
Test: NCI-60 one-dose screening
Format: cell-based
Details: Homo sapiens, Non-Small Cell Lung Cancer, read-out: GI (%)
Procedure: Compounds 5a–c and 6a–o were tested using standard NCI protocols for in vitro activity at the National Cancer Institute (NCI, Bethesda, Maryland, USA), wherein compounds were tested using one single concentration of 10 μM against 60 cell lines of nine different cancer types. […] Excellent activity was observed against a single NSCLC cell line, EKVX, for compounds 5a–c (GIs = 77–86%, Table 1) with no observed activity for indoles with substituted vanillin 6a–o. […]
Threshold check on inhibition at 10 µM: at or above 20% gives t, strictly below gives f.

-- ask Does the molecule COc1cc(/C=C2/C(=O)Nc3cc(Cl)ccc32)ccc1O have recorded inhibition at 10 µM that is 20% or more?
-- reply t

-- ask Does the molecule COc1cc(/C=C2/C(=O)Nc3ccccc32)ccc1OCc1ccc(F)cc1 have recorded inhibition at 10 µM that is 20% or more?
-- reply f

-- ask Does the molecule COc1ccc(COc2ccc(/C=C3/C(=O)Nc4ccccc43)cc2OC)cc1 have recorded inhibition at 10 µM that is 20% or more?
-- reply f

-- ask Does the molecule COc1ccc(COc2ccc(/C=C3/C(=O)Nc4ccc(Cl)cc43)cc2OC)cc1 have recorded inhibition at 10 µM that is 20% or more?
-- reply f

-- ask Does the molecule COc1cc(C=C2C(=O)Nc3ccccc32)ccc1O (mixture of isomers) have recorded inhibition at 10 µM that is 20% or more?
-- reply t

-- ask Does the molecule COc1cc(C=C2C(=O)Nc3ccc(Cl)cc32)ccc1O (mixture of isomers) have recorded inhibition at 10 µM that is 20% or more?
-- reply t

-- ask Does the molecule COc1ccc(COc2ccc(/C=C3/C(=O)Nc4cc(Cl)ccc43)cc2OC)cc1 have recorded inhibition at 10 µM that is 20% or more?
-- reply f

-- ask Does the molecule COc1cc(C=C2C(=O)Nc3ccc(Cl)cc32)ccc1OCc1ccc(F)cc1 (mixture of isomers) have recorded inhibition at 10 µM that is 20% or more?
-- reply f

-- ask Does the molecule COc1cc(C=C2C(=O)Nc3ccc(Cl)cc32)ccc1OCc1ccccn1 (mixture of isomers) have recorded inhibition at 10 µM that is 20% or more?
-- reply t

-- ask Does the molecule COc1cc(/C=C2/C(=O)Nc3ccc(Cl)cc32)ccc1OCc1ccccc1 have recorded inhibition at 10 µM that is 20% or more?
-- reply f

-- ask Does the molecule COc1cc(C=C2C(=O)Nc3ccccc32)ccc1OCc1ccccc1 (mixture of isomers) have recorded inhibition at 10 µM that is 20% or more?
-- reply f

-- ask Does the molecule COc1cc(/C=C2/C(=O)Nc3cc(Cl)ccc32)ccc1OCc1ccccc1 have recorded inhibition at 10 µM that is 20% or more?
-- reply f

-- ask Does the molecule COc1cc(/C=C2/C(=O)Nc3cc(Cl)ccc32)ccc1OCc1ccccn1 have recorded inhibition at 10 µM that is 20% or more?
-- reply t

-- ask Does the molecule COc1cc(/C=C2/C(=O)Nc3cc(Cl)ccc32)ccc1OCc1ccc(F)cc1 have recorded inhibition at 10 µM that is 20% or more?
-- reply t

-- ask Does the molecule COc1cc(C=C2C(=O)Nc3cc(Cl)ccc32)ccc1OCc1ccc(Cl)cc1 (mixture of isomers) have recorded inhibition at 10 µM that is 20% or more?
-- reply t

-- ask Does the molecule COc1cc(/C=C2/C(=O)Nc3ccccc32)ccc1OCc1ccc(Cl)cc1 have recorded inhibition at 10 µM that is 20% or more?
-- reply f

-- ask Does the molecule COc1cc(C=C2C(=O)Nc3ccccc32)ccc1OCc1ccccn1 (mixture of isomers) have recorded inhibition at 10 µM that is 20% or more?
-- reply t

-- ask Does the molecule COc1cc(C=C2C(=O)Nc3ccc(Cl)cc32)ccc1OCc1ccc(Cl)cc1 (mixture of isomers) have recorded inhibition at 10 µM that is 20% or more?
-- reply t
